# growth annotations
tested on: SW-620 colon; experiment: NCI-60 one-dose screen, 48 h (100 = growth as untreated, 0 = no growth, -100 = all killed); conditions: 10 µM unless noted
The panel holds about 83,000 compounds, 20% with a hit somewhere; the sample as a whole holds those more often. Active and inactive are the calls of the source. The calls were made as follows: active = growth percent below 10; inactive = the rest.

Enter reported growth observed with SW-620 colon for Nc1c2c(nc3ccc(Br)cc13)CC(c1ccccc1)CC2=O (centres undefined)
26.1% (inactive)

For the record OCC1OC(n2cnc3c(Cl)ncnc32)CC1O (centres undefined) , what value of growth is listed for SW-620 colon?
98.7% (inactive)

---
Record Cc1ccc(Sc2sc(-c3ccccc3)nc2[P+](c2ccccc2)(c2ccccc2)c2ccccc2)cc1 : what is its growth with SW-620 colon?
8.24% (active)

Lab note: need growth with SW-620 colon for entry CCCCn1c(-c2ccc(O)cc2)cn2c3c(=O)[nH]c(=O)n(C)c3nc12 , please look it up.
36.6% (inactive)

Notebook entry, SW-620 colon assay: growth of C#Cc1cccc(NC(=O)C2CCCN(C(=O)CCl)C2)c1 (centres undefined) = ?
20.5% [8.25 µM] (inactive)

growth of COc1cc2ncnc(Nc3ccc(OCc4cccc(F)c4)c(Cl)c3)c2cc1NC(=O)C1CCCC1 on SW-620 colon?
98.4% (inactive)

Reported growth for SW-620 colon, given c1ccc(CN2C(c3ccccc3)=Nc3ccccc3C2c2c[nH]c3ccccc23)cc1 (centres undefined) ?
27.1% (inactive)

Write down the reported growth of Cc1ccc(Nc2c(C(N)=O)cnc3ccc(S(=O)(=O)Nc4cc(C)on4)cc23)cc1 , test system: SW-620 colon.
105% (inactive)

Lab request: please report growth under test system SW-620 colon for COc1ccc(C2c3ccccc3NC(=O)N2C2CCN(C)CC2)c(OC)c1 (centres undefined)
101% (inactive)

Give growth (SW-620 colon) of the following molecule: CC(C)=CCC[C@](C)(O)[C@H]1CC[C@]2(C)[C@@H]1CC[C@@H]1[C@@]3(C)C/C(=C/c4cccc([N+](=O)[O-])c4)C(=O)C(C)(C)[C@@H]3CC[C@]12C
72.6% (inactive)

###

We begin with a simple list: items and their reported growth.
system: MOLT-4 leukemia; assay: NCI-60 one-dose screen, 48 h (100 = growth as untreated, 0 = no growth, -100 = all killed); details: 10 µM unless noted
Compounds without any hit were thinned out: in the full panel of roughly 83,000, 20% have a hit.
Report the value in % with no unit label.

Solved cases below.
// returns reported growth for input CCNCCCn1c2c(c3ccc([N+](=O)[O-])cc3c1=O)C(=O)c1cc(OC)cnc1-2
-4.26

Data request, read-out growth, for Nc1ccccc1NC(=O)c1ccc(CN2CCC/C(=C\c3ccccn3)C2=O)cc1
7.84

# growth lookup, item CCCCCCCN(CCCCCCC)C(=N)c1ccnc2ccccc12
-16.5

Which growth is reported for this compound? O=C(NC(Cc1cn(Cc2ccccc2)cn1)C(=O)O)OCC1c2ccccc2-c2ccccc21 (centres undefined)
83.6

---
Would you mind telling me what growth value was observed for CCN(CC)C(=O)CCCCCn1c2ccccc2c2c3c(c4c5ccccc5[nH]c4c21)C(=O)N(O)C3=O ?
-0.333

So what's the measured growth for this one? C=C1C(=O)O[C@H]2[C@H]1CC/C(COC(=O)NCc1c[nH]c3ccccc13)=C\CC[C@@]1(C)O[C@@H]21
1.16

growth lookup needed for CCc1nnc(NC(=O)c2ccoc2COc2ccccc2)s1 , thanks.
25.3

Entry c1ccc2[nH]c(-c3ccc(Nc4nc(N5CCCCC5)nc(N5CCOCC5)n4)cc3)nc2c1 : reported growth = ?
13.7

Which growth value belongs to O=C1C(=O)N(CCCCn2cc(-c3ccccc3)nn2)c2ccccc21 ?
101

Where do these numbers come from? They come from PubChem BioAssay (NCI).
